readout: melting point

1) Cc1nc(NCCc2cccs2)c2cc(C)sc2n1 [Compound 50]
102.5 to 103.7 °C
2) Cc1nc(NCCc2ccc(S(C)(=O)=O)cc2)c2cc(C)sc2n1 [Compound 44]
176 to 179.5 °C
3) COc1cc(CCNc2nc(C)nc3sc(C)cc23)cc(OC)c1 [Compound 35]
106 to 107 °C
